These data points were gathered from paper PMC5672931.

# Test method notes: pharmacokinetics, plasma concentrations by LC-MS/MS
# Particulars: human, plasma, intravenous, Tmax, after the start of the 8-h infusion, 16 patients
Measurement label: Tmax

Tmax measured on CCc1cnn2c(NCc3ccc[n+]([O-])c3)cc(N3CCCC[C@H]3CCO)nc12 [dinaciclib, Dinaciclib] = 4 to 8 h
